// cross-source set; read-out = IC50; system = Protein kinase C theta type (Homo sapiens)
measured.quantity: IC50 (nM)

Known IC50 results, listed for orientation:
Cc1c(Nc2c(C#N)cnc3sc(/C=C/C(=O)O)cc23)ccc2[nH]ccc12
21
CCN1C(=O)C(F)(F)Oc2cc(Nc3ncc(F)c(NC4CC(C)(C)N(C)C(C)(C)C4)n3)cnc21
3.88
CCCCc1cc2c(Nc3ccc4[nH]ccc4c3)c(C#N)cnc2s1
1160
CN1CCN(Cc2ccccc2-c2cc3c(Nc4ccc5[nH]ccc5c4)c(C#N)cnc3s2)CC1
530
Cn1cc(-c2cnc3ccc(NCC4CCCCC4)nn23)cn1
7000
Cc1c(Nc2c(C#N)cnc3sc(-c4cccnc4)cc23)ccc2[nH]ccc12
14

a: Cc1c(Nc2c(C#N)cnc3sc(-c4cccc(C(=O)N(C)CCN(C)C)c4)cc23)ccc2[nH]ccc12
b: Cc1c(Nc2c(C#N)cnc3sc(-c4ccc(S(N)(=O)=O)cc4)c(C)c23)ccc2[nH]ccc12
Exam item: Of a and b , whose reported IC50 is numerically smaller? Please respond with the label that marks your chosen entry.
Marked response: b
(b: 7 nM, a: 18 nM)

1: CCN(CC)CCCC(C)Nc1ccc2ncc(-c3cccc(Cl)c3)n2n1 (stereo not drawn)
2: CSc1nnnn1-c1cccc(Nc2ncc(F)c(NC3CC(C)(C)NC(C)(C)C3)n2)c1
3: CN1CCN(c2cccc(Nc3ncc(F)c(NC4CC(C)(C)N(C)C(C)(C)C4)n3)c2)CC1
Exam item: Arrange the 3 molecules by rising IC50, starting with the smallest. Answer with the labels in sequence, matching the requested order.
Marked response: 2, 1, 3
(2: 3.3 nM, 1: 220 nM, 3: 407 nM)

---

// cross-source set; read-out = pIC50; system = Protein kinase C theta type (Homo sapiens, UniProt Q04759)
pIC50: −log10 of the molar value.
measured.quantity: pIC50

Known pIC50 results, listed for orientation:
Cc1ccc(Nc2ncc(Cl)c(NC3CC(C)(C)N(C)C(C)(C)C3)n2)cc1C#N
8.57
CN1C(C)(C)CC(Nc2nc(Nc3ccc(-c4cccnc4)c(Cl)c3)ncc2F)CC1(C)C
8.42
Cc1c(Nc2c(C#N)cnc3sc(-c4cccc(N5CCCS5(=O)=O)c4)cc23)ccc2[nH]ccc12
7.31
CN1CCN(c2ccc(Nc3ncc(F)c(NC4CC(C)(C)N(C)C(C)(C)C4)n3)cc2Cl)CC1
8.30
CN1CCN(c2ccc(Nc3ncc(C#N)c(NC4CC(C)(C)N(C)C(C)(C)C4)n3)cc2Cl)CC1
8.26
N#Cc1cnc2sc(/C=C/c3ccc(F)cc3)cc2c1Nc1ccc2[nH]ccc2c1
5.61
Cc1c(Nc2c(C#N)cnc3sc(CCC(=O)N4CCCC4)cc23)ccc2[nH]ccc12
6.60
Cc1c(Nc2c(C#N)cnc3sc(C(=O)NC4CCNCC4)cc23)ccc2[nH]ccc12
7.36
COc1cccc(-c2cncc(C#N)c2Nc2ccc(F)c(F)c2)c1
5.62
N#Cc1c[n+]([O-])c2sccc2c1Nc1ccc2[nH]ccc2c1
5.88

1: CCN1CCN(c2ccc(Nc3ncc(F)c(NC4CC(C)(C)N(C)C(C)(C)C4)n3)cc2C(F)(F)F)CC1
2: c1ccc(-c2cnc3ccc(NCCCn4ccnc4)nn23)cc1
3: CN1CCN(c2ccc(Nc3ncc(F)c(NC4CC(C)(C)N(C)C(C)(C)C4)n3)cc2F)CC1
4: CN1C(C)(C)CC(Nc2nc(Nc3ccc(-c4cccnc4)c(C(F)(F)F)c3)ncc2F)CC1(C)C
5: CCOC(=O)CCc1cc2c(Nc3ccc4[nH]ccc4c3)c(C#N)cnc2s1
Exam item: Arrange the 5 compounds by rising pIC50, starting with the smallest. Answer with the labels in sequence, matching the requested order.
Marked response: 2, 5, 3, 4, 1
(2: 4.89, 5: 6.18, 3: 7.82, 4: 8.05, 1: 8.47)
